- PROTOCOL_NOTES: inhibition of 3D7 malaria parasite growth – strain 3D7 (AID 2306);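 further: 0% = DMSO wells and 100% = chloroquine plus artemisinin control wells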
- TEST_PARAMETERS: P. falciparum 3D7 erythrocytic growth, LDH absorbance, 72 h; at 2 µM; stronger effect = higher value
Active and inactive are the calls of the source. How the calls were made is not given here.
QUANTITY_MEASURED: growth inhibition

>  <MOLECULE>
O=C(NCc1cccc(C(F)(F)F)c1)[C@@H]1CCCN1C(=O)c1ccc(O)c(-c2ccc(Cl)c(Cl)c2)c1

>  <OBS_VALUE>
99% (active)

$$$$
>  <MOLECULE>
NCC1CCCN1Cc1ccc(-c2cccc(-c3nc4ccc(C(F)(F)F)cc4[nH]3)c2)cc1 (stereo not given)

>  <OBS_VALUE>
99% (active)

$$$$
>  <MOLECULE>
CN1CCN(c2ccnc3ccc(NC(=O)Nc4ccc5c(c4)CCC5=O)cc23)CC1

>  <OBS_VALUE>
100% (active)

$$$$
>  <MOLECULE>
CC(C)CNCc1cccc(-c2cccc(CN(CCCN3CCN(C)CC3)C(=O)NC3CCCCC3)c2)c1

>  <OBS_VALUE>
100% (active)

$$$$

Noted for COc1cc(CNCCCNc2cc(=O)c3ccccc3[nH]2)c2c(c1)C(C)CN2C(=O)OC(C)(C)C (stereo not given) : its growth inhibition reads 96% (active)

----------
- PROTOCOL_NOTES: inhibition of 3D7 malaria parasite growth – strain 3D7 (AID 2306);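 further: 0% = DMSO wells and 100% = chloroquine plus artemisinin control wells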
- TEST_PARAMETERS: P. falciparum 3D7 erythrocytic growth, LDH absorbance, 72 h; at 2 µM; stronger effect = higher value
QUANTITY_MEASURED: growth inhibition (%)
API: value field is a number in %; no unit string.

Noted for Cc1cccc2[nH]c(-c3ccc(-c4cccc(NC(=O)c5cnn6cccnc56)c4)cc3)nc12 : its growth inhibition reads 91

Noted for Clc1ccc(Nc2nc(-c3ccccn3)cs2)nc1 : its growth inhibition reads 95

Noted for Cc1cc(O)c2c3c1C(=O)C=C1C3c3c(c(O)cc(O)c3C(=O)C1(C)C)C2=O (stereo unspecified) : its growth inhibition reads 98

Noted for CNC(=O)c1cc(S(=O)(=O)N2CCN(c3ccccn3)CC2)cs1 : its growth inhibition reads 99

Noted for Cc1cc(NC(=O)NCCN2CCC(NS(=O)(=O)c3ccccc3Cl)C2)c2ccccc2n1 (stereo unspecified) : its growth inhibition reads 97

Noted for NC(=O)N1CCN(Cc2ccc(Br)cc2)CC1 : its growth inhibition reads 96

Noted for COc1ccc(Nc2nc(NCc3cccnc3)cc(-c3ccc(OC)cc3)n2)cc1 : its growth inhibition reads 89

Noted for CC(=O)c1cccc2c(NC(=O)Nc3ccc4nccc(N5CCN(C)CC5)c4c3)cccc12 : its growth inhibition reads 99

----------
- PROTOCOL_NOTES: human hepatoma cell viability loss – ATP luminescence, cytotoxicity control for P. falciparum antimalarial project, primary screen (AID 2303);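 further: 0% = DMSO wells and 100% = digitonin-killed cells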
- TEST_PARAMETERS: HepG2 viability, 24-48 h, at 10 µM
Calls of active or inactive are those of the source.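 The calls were made as follows: active = inhibition above 50%; inactive = the rest.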
Field 'call' accepts active, inactive

>  <COMPOUND>
O=C(NCCc1ccccc1)c1cc(-c2cccnc2)cnc1NCC1CC1

>  <CLASS_LABEL>
inactive

$$$$

Request: Per the records of this test, what outcome belongs to O=C(c1cc(C(=O)Nc2ccccc2F)c(=O)n(-c2ccccc2F)c1)c1cc(Cl)ccc1O ?
Result: inactive

Request: Per the records of this test, what outcome belongs to Oc1c(C(Nc2ccccn2)c2ccc(Cl)cc2Cl)ccc2cccnc12 (stereo not given) ?
Result: inactive

Request: Per the records of this test, what outcome belongs to O=C(NC1CCN(Cc2ccc3c(c2)OCCO3)CC1)c1ccc(-c2cccc(C(F)(F)F)c2)s1 ?
Result: active

Request: Per the records of this test, what outcome belongs to CC1(CCc2ccccc2)N=C(N)N(Cc2ccccc2)C(=O)C1c1ccc(Cl)c(Cl)c1 (stereo not given) ?
Result: active

----------
- TEST_SYSTEM: Plasmodium falciparum protein kinase 6 (PK6, PF3D7_1337100) (UniProt Q8IDW1)
- PROTOCOL_NOTES: PfPK6 kinase inhibitors, biochemical, TCAMS library (AID 1159586)
- TEST_PARAMETERS: recombinant PfPK6, Kinase-Glo ATP depletion luminescence
Entries with a potency or affinity are not part of this list. Calls of active or inactive are those of the source. How the calls were made is not given here.
QUANTITY_MEASURED: outcome

>  <COMPOUND>
CNCCNCc1ccc(-c2ccc(-c3nc4ccccc4[nH]3)s2)cc1

>  <QUANTITY_MEASURED>
outcome

>  <OBS_VALUE>
inactive

$$$$
>  <COMPOUND>
CCCCOc1cc(OC)c2ccccc2c1CCNCCCCNCCc1c(OCCCC)cc(OC)c2ccccc12

>  <QUANTITY_MEASURED>
outcome

>  <OBS_VALUE>
inactive

$$$$
>  <COMPOUND>
CC1CN(c2ccc(NC(=O)c3cccs3)cc2)CCN1Cc1cccc(F)c1 (stereo not given)

>  <QUANTITY_MEASURED>
outcome

>  <OBS_VALUE>
inactive

$$$$
>  <COMPOUND>
NC1CCN(Cc2cccc(-c3ccc(-c4nc5ccc(F)cc5[nH]4)cc3)c2)C1 (stereo not given)

>  <QUANTITY_MEASURED>
outcome

>  <OBS_VALUE>
inactive

$$$$

Noted for Cc1cc(N2CCCC2)nc(Nc2ccc(NC(=O)COc3ccccc3)cc2)n1 : its outcome reads inactive

----------
- TEST_SYSTEM: L-lactate dehydrogenase (Plasmodium falciparum (isolate CDC / Honduras))
- PROTOCOL_NOTES: PfLDH activity inhibition – cell lysate, 3D7 strain, counter-screen for P. falciparum growth inhibition project (AID 2304);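 further: 0% = vehicle and 100% = reference inhibitor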
- TEST_PARAMETERS: P. falciparum 3D7 crude extract, LDH APAD/NBT absorbance; at 2 µM; stronger effect = higher value
QUANTITY_MEASURED: inhibition (%)
API: value field is a number in %; no unit string.

Some entries whose results are on file:
>  <MOLECULE>
CSc1nccc(-c2ccc3ccnc(N)c3c2)n1

>  <UNIT_LABEL>
%

>  <inhibition>
0

$$$$
>  <MOLECULE>
CC(C)CNCc1cccc(-c2ccc(CNc3ccc(C(=O)c4ccccc4)cc3)cc2)c1

>  <UNIT_LABEL>
%

>  <inhibition>
0

$$$$
>  <MOLECULE>
O=C(NOCCCCOc1ccc(Cl)c(Cl)c1)c1ccccc1

>  <UNIT_LABEL>
%

>  <inhibition>
3

$$$$
>  <MOLECULE>
CN(CCC1CCN(C(=O)/C=C/c2ccc(Cl)c(Cl)c2)CC1)C1CCC(c2c[nH]c3ccccc23)CC1 (stereo not given)

>  <UNIT_LABEL>
%

>  <inhibition>
-5

$$$$

For the next question, use this molecule.
Noted for CCN(CC)CCN(Cc1ccc(-c2ccc(C(F)(F)F)cc2)cc1)C(=O)Cn1cc(Cc2cnn(C)c2)c(=O)nc1/C=C/c1cccc(F)c1F : its inhibition reads -2

----------
- PROTOCOL_NOTES: human hepatoma cell viability loss – ATP luminescence, cytotoxicity control for P. falciparum antimalarial project, primary screen (AID 2303);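 further: 0% = DMSO wells and 100% = digitonin-killed cells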
- TEST_PARAMETERS: HepG2 viability, 24-48 h, at 10 µM
Active and inactive are the calls of the source.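 The calls were made as follows: active = inhibition above 50%; inactive = the rest.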
Field 'call' accepts t for active, f for inactive

>  <COMPOUND>
CN1CCC(NCc2ccc(-c3cccc(-c4nc5ccccc5[nH]4)c3)cc2)CC1

>  <CLASS_LABEL>
t

$$$$
>  <COMPOUND>
c1ccc2c3c(ccc2c1)Sc1c(ccc2ccccc12)N3

>  <CLASS_LABEL>
f

$$$$
>  <COMPOUND>
Cc1c(CNCCCNc2nc3ccccc3[nH]2)sc(C(F)F)c1Br

>  <CLASS_LABEL>
f

$$$$
>  <COMPOUND>
Cc1cc2nc(-c3ccc(/C=C/C(=O)NC4CCCCC4)cc3)[nH]c2cc1C

>  <CLASS_LABEL>
f

$$$$
>  <COMPOUND>
CCCCCCN1CCCN(Cc2ccc(C(=O)Nc3ccc(Cl)cc3)cc2)CC1

>  <CLASS_LABEL>
t

$$$$
>  <COMPOUND>
Cc1cccc2[nH]c(-c3cccc(-c4ccc(NC(=O)C(C)CN5CCOCC5)cc4)c3)nc12 (centres undefined)

>  <CLASS_LABEL>
f

$$$$

Request: Per the records of this test, what outcome belongs to COc1ccc2nccc([C@@H](O)CN3CCC(NCc4cc5cc([N+](=O)[O-])ccc5[nH]4)CC3)c2c1 ?
Result: f

Request: Per the records of this test, what outcome belongs to CC[C@H]1CN(CCCC(=O)c2ccccc2)CC[C@H]1CCCc1ccnc2ccc(OC(=O)c3ccccc3)cc12 ?
Result: f

Request: Per the records of this test, what outcome belongs to Cc1cccc2[nH]c(-c3cccc(-c4ccc(NC(=O)Cc5cnc[nH]5)cc4)c3)nc12 ?
Result: f

----------
- TEST_SYSTEM: L-lactate dehydrogenase (Plasmodium falciparum (isolate CDC / Honduras)) (UniProt Q27743)
- Sequence (Q27743 whole entry, looked up): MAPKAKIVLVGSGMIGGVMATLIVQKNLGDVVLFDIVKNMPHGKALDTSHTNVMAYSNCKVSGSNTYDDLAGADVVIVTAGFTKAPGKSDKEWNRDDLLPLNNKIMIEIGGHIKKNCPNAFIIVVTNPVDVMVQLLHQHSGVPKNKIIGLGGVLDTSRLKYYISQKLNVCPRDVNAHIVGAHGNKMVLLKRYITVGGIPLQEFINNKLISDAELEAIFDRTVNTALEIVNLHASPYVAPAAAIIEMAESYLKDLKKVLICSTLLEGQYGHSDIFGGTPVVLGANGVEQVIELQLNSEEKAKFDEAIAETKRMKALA
- PROTOCOL_NOTES: PfLDH activity inhibition – cell lysate, 3D7 strain, counter-screen for P. falciparum growth inhibition project (AID 2304);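 further: 0% = vehicle and 100% = reference inhibitor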
- TEST_PARAMETERS: P. falciparum 3D7 crude extract, LDH APAD/NBT absorbance; at 2 µM; stronger effect = higher value
QUANTITY_MEASURED: inhibition (%)
API: value field is a number in %; no unit string.

>  <MOLECULE>
O=C(Nc1ccc(Cl)cc1)Nc1cccc(-c2ccc(-c3nc4ccccc4[nH]3)cc2)c1

>  <UNIT_LABEL>
%

>  <inhibition>
-3

$$$$
>  <MOLECULE>
COc1ccc(Nc2nccc(-c3c(-c4cccc(NC(=O)c5c(F)cccc5F)c4)nn4ccccc34)n2)cc1Cl

>  <UNIT_LABEL>
%

>  <inhibition>
-1

$$$$
>  <MOLECULE>
CC1CCC(NCc2c(O)ccc3ccccc23)CC1 (centres undefined)

>  <UNIT_LABEL>
%

>  <inhibition>
-1

$$$$
>  <MOLECULE>
CCCN(CCC)CCCN(CCCN(CCC)CCC)c1cc(C)nc(Nc2ccc3cc(Br)ccc3c2)n1

>  <UNIT_LABEL>
%

>  <inhibition>
1

$$$$
>  <MOLECULE>
COC(=O)Nc1ccc(-c2ccc(C(=O)NC3CCN(C[C@H](O)c4ccnc5ccc(OC)cc45)CC3)cc2)c(C)c1

>  <UNIT_LABEL>
%

>  <inhibition>
-2

$$$$
>  <MOLECULE>
CCc1c(C)nc(-n2nc(C)cc2NC(=O)CC(c2ccccc2)c2ccccc2)[nH]c1=O

>  <UNIT_LABEL>
%

>  <inhibition>
-3

$$$$

Noted for Cc1ncc(CN2CCC(C(=O)Nc3ccc(-c4nc5ccccc5o4)cc3)CC2)s1 : its inhibition reads 1

Noted for Nc1c2nc(-c3c(F)cccc3Cl)[nH]c(=O)c2nc(=O)n1-c1ccccc1 : its inhibition reads 2

Noted for O=C(NCCCCN1CCN(c2ccc3c(c2)CCC3)CC1)c1ccc(NC(=O)c2ccc(Cl)cc2)cc1 : its inhibition reads 2

Noted for CCOc1ccc2c(NN=Cc3cccc(Cl)c3)cc(C)nc2c1 : its inhibition reads -2

Noted for Cc1ccc(F)c(C(=O)Nc2cccc(-c3nn4ccccc4c3-c3ccnc(Nc4cccc(F)c4)n3)c2)c1F : its inhibition reads 6

Noted for CC(=O)N(C)c1cccc(C(=O)Nc2ccc(-c3cccc(-c4nc5c(C)cccc5[nH]4)c3)cc2)c1 : its inhibition reads -2

Noted for CC(Oc1cccc(Cl)c1)C(=O)N1CCc2ccccc21 (centres undefined) : its inhibition reads -1

Noted for CCOC(=O)C1=C(C)NC(Cn2ccnc2)=C(C(=O)OCC)C1c1ccc(C(C)(C)C)cc1 (centres undefined) : its inhibition reads -10

Noted for CC(C)C(NC(=O)c1c(F)cccc1F)C(=O)Nc1ccc(Cc2nc3ccccc3s2)cc1 (centres undefined) : its inhibition reads 6

Noted for Cc1ccc(C(=O)Nc2ccc(Cl)c(N3CCN(CCc4ccccc4)CC3)c2)cc1 : its inhibition reads -7

Noted for CCOc1cc(C(=O)Nc2ccc3nc(N4CCN(C)CC4)cc(C)c3c2)cc(OCC)c1OCC : its inhibition reads -1

Noted for Oc1ccc(CCNc2nc(NCc3ccccc3-c3ccc(F)cc3)nc(N3CCNCC3)n2)cc1 : its inhibition reads 0

Noted for CCNc1cc(C(=O)N[C@@H](Cc2ccccc2)[C@H](O)CNCCc2ccccc2)cc(N2CCCCS2(=O)=O)c1 : its inhibition reads 7
